assay: chemical genetic growth profiling, strain panel (AID 1159580);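 note: tested at 20 µM; growth read once vehicle control cultures reached saturation at 30 °C; lower values mean less growth of the strain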; details: S. cerevisiae deletion strains, growth OD, locus YMR205C, strain PFK2
About 2,000 (36%) of roughly 5,500 compounds were called active. About 18% were inconclusive and are not listed. Cut-off read from the data, not from the text of the source: active = normalized growth mostly below about 0.91 (no sharp cut-off); inconclusive = no clear call, values can overlap the other calls; inactive = mostly above about 0.92. This is one part of the list.
Mark one answer only. Choices: active, inactive

// return assay outcome for CCCc1cc(C(N)=S)ccn1 inactive

// return assay outcome for Oc1cc(O)c2c(c1)O[C@H](c1ccc(O)c(O)c1)[C@H](O)C2 inactive

// return assay outcome for O=C(/C=C/c1ccc(O)c(O)c1)OCCc1ccccc1 active

// return assay outcome for C#CCCCCCCCCCCCc1ccco1 inactive

// return assay outcome for NS(=O)(=O)c1cc2c(cc1Cl)NC=NS2(=O)=O inactive

// return assay outcome for C=CCc1ccc(OC)cc1 inactive

// return assay outcome for C=CC[C@]1(O)CCC2C3CCC4=CC(=O)CCC4=C3C=C[C@@]21C (stereo partly specified) inactive

// return assay outcome for COc1c(N2CCNC(C)C2)c(F)cc2c(=O)c(C(=O)O)cn(C3CC3)c12 (stereo unspecified) inactive

// return assay outcome for C[C@]12CCC(=O)C=C1C=CC1C2CC[C@@]2(C)C1CC[C@@]21CCC(=O)O1 (stereo partly specified) inactive

// return assay outcome for COC(=O)/C=C/C(C)=C/C=C/C(C)=C/C=C/C=C(C)/C=C/C=C(C)/C=C/C(=O)O inactive

// return assay outcome for c1ccc2c(c1)sc1ccccc12 active

// return assay outcome for COc1ccc2c(c1)OC1(O)COc3cc(OC)c(OC)cc3C1=C2 (stereo unspecified) inactive

// return assay outcome for COc1ccc(-c2coc3cc(O)ccc3c2=O)c(OC)c1 inactive

// return assay outcome for Cn1c(=O)c2c(ncn2CC(O)CO)n(C)c1=O (stereo unspecified) inactive

// return assay outcome for CCCCC/C=C/CCC(=O)N[C@H]1[C@H](Oc2c3cc4cc2Oc2ccc(cc2Cl)[C@@H](O[C@@H]2O[C@H](CO)[C@@H](O)[C@H](O)[C@H]2NC(C)=O)[C@@H]2NC(=O)[C@H](NC(=O)[C@@H]4NC(=O)[C@H]4NC(=O)C(Cc5ccc(c(Cl)c5)O3)NC(=O)[C@H](N)c3ccc(O)c(c3)Oc3cc(O)cc4c3)c3ccc(O)c(c3)-c3c(OC4O[C@H](CO)[C@@H](O)[C@H](O)[C@@H]4O)cc(O)cc3[C@@H](C(=O)O)NC2=O)O[C@H](CO)[C@@H](O)[C@@H]1O (stereo partly specified) inactive

// return assay outcome for C[C@]12CCC(=O)C=C1C=CC1C2CC[C@@]2(C)C1CC[C@@]2(O)CCC(=O)O (stereo partly specified) inactive

// return assay outcome for N[C@@H](Cc1ccc(N(CCCl)CCCl)cc1)C(=O)O inactive

// return assay outcome for CCCCCCCCCCCCCc1ccco1 active

// return assay outcome for CC(C)NCC(O)COc1cccc2[nH]ccc12 (stereo unspecified) inactive

// return assay outcome for COc1ccc(-c2coc3cc(O)ccc3c2=O)c(OC)c1O inactive

// return assay outcome for C=CCCCCCCCCCCCc1ccco1 active

// return assay outcome for CC[C@@]1(O)C[C@H](O)c2c(cc3c(c2O)C(=O)c2c(O)ccc(O)c2C3=O)[C@H]1C(=O)OC inactive

// return assay outcome for O=S(=O)(O)c1cc(N=C=S)ccc1/C=C/c1ccc(N=C=S)cc1S(=O)(=O)O inactive

// return assay outcome for O=C(/C=C/c1ccc(O)c(O)c1)OC(Cc1ccc(O)c(O)c1)C(=O)O (stereo unspecified) inactive

// return assay outcome for C=CCc1ccc(O)c(OC)c1 inactive

// return assay outcome for CCN1CCCC(OC(=O)C(c2ccccc2)c2ccccc2)C1 (stereo unspecified) inactive

// return assay outcome for COc1ccc(-c2coc3cc(O)ccc3c2=O)c(O)c1O inactive

// return assay outcome for CCN(CC)C(=O)N1CCN(C)CC1 inactive

// return assay outcome for C[n+]1c2cc(N)ccc2cc2ccc(N)cc21 active

// return assay outcome for COc1ccc(C(=O)O)cc1OC inactive

// return assay outcome for Oc1cc(O)c2c(c1)O[C@H](c1cc(O)c(O)c(O)c1)[C@H](O)C2 inactive

// return assay outcome for C[C@@H]1CC(Cl)CC[C@H]1C(=O)OC(C)(C)C (stereo partly specified) inactive

// return assay outcome for CC1COc2c(N3CCN(C)CC3)c(F)cc3c(=O)c(C(=O)O)cn1c23 (stereo unspecified) inactive

// return assay outcome for Cc1ncc(CNC(=O)N(CCCl)N=O)c(N)n1 inactive

// return assay outcome for Cc1[nH]c2ccccc2c1CN(C)C inactive

// return assay outcome for O=C(O)CCCc1ccccc1 inactive
